System: HCl/EtOH-induced gastric lesions in mice
Experiment: HCl/EtOH-induced gastric lesions model in mice
Format: in vivo
Details: HCl/EtOH-induced gastric lesions model in mice
Procedure: The gastroprotective activity of the compounds 4a–5a, and 9, 11 was assessed in the HCl/EtOH-induced lesion model as described previously. Mice were randomly distributed into groups of seven animals each and fasted for 12 h with free access to water prior to the experiment. […] The length (mm) of each lesion was measured, and the lesion index was expressed as the sum of the length of all lesions.
Measured Property: gastroprotective activity (in words)

>>> observed_value("CC(=O)Oc1cc(C)c2c(c1OC(C)=O)CC1(O2)C(C)CCC2C3(C)CCC(OC(C)=O)C(C)(C)C3CCC21C (stereo not drawn) [Compound 9, stypotriol triacetate]")
"inactive"
>>> observed_value("CC(=O)Oc1cc(C)c2c(c1OC(C)=O)CC1(O2)C(C)CCC2C3(C)CCC(=O)C(C)(C)C3CCC21C (stereo not drawn) [Compound 11, 14-ketostypodiol diacetate]")
"inactive"
